System: A549
Assay remarks: Antiproliferative activity against human A549 cells assessed as reduction in cell viability incubated for 72 hrs by CCK8 assay
Format: functional, cell-based
Condition label: a549
Property name: IC50 (µM)
Provide only the numeric value, understood in µM.

[ask] Looking for the measured IC50 of COC(=O)c1cc2cc(OC)c(-c3c(OC)cc4cc(C(=O)OC)oc(=O)c4c3O)c(O)c2c(=O)o1 , can you help?
[reply] 60

====

Assay remarks: Cytotoxicity against mouse RAW264.7 cells assessed as reduction in cell viability incubated for 72 hrs by CCK8 assay
Type: toxicity, cell-based
Property name: IC50 at 72 h

[ask] Looking for the measured IC50 at 72 h of COC(=O)c1cc2cc(OC)c(-c3c(OC)cc4cc(C(=O)OC)oc(=O)c4c3O)c(O)c2c(=O)o1 , can you help?
[reply] > 50 µM
